Origin of measurements: ChEMBL document CHEMBL1155465

- Test method notes: Selectivity index, ratio of CC50 for human Jurkat A72 cells to EC50 for HIV1 3B
- Type: toxicity, cell-based
Readout name: selectivity ratio

selectivity ratio for `Cc1ccnc2c1NC(=O)c1cccnc1N2C1CC1` ? > 250

----------
- Test method notes: Selectivity index, ratio of CC50 for human MT4 cells to EC50 for HIV1 3B
- Assay type: toxicity, cell-based
- Settings: read-out: Ratio CC50/EC50
Readout name: selectivity ratio

Recorded selectivity ratio, per entry:
CC[n+]1ccc(-c2ccncc2)cc1 = < 1
BrCc1cc(CBr)cc(-[n+]2ccc(-c3cc[n+](-c4cc(CBr)cc(CBr)c4)cc3)cc2)c1 = < 1
BrCC[n+]1ccc(-c2cc[n+](CCBr)cc2)cc1 = 3.5
C=C[n+]1ccc(-c2ccncc2)cc1 = < 1
CCC[n+]1ccc(-c2ccncc2)cc1 = < 1

selectivity ratio for `NCCC[n+]1ccc(-c2cc[n+](Cc3ccccc3)cc2)cc1` ? < 1

Follow-up item: `NCCC[n+]1ccc(-c2ccncc2)cc1` < 1

----------
- Test method notes: Cytotoxicity against human PBMC after 5 days by MTT assay
- Type: cell-based
Readout name: CC50 at 120 h (µg/mL)
The answer is to be given in µg/mL; state only the numeric part.

CC50 at 120 h for `CC[n+]1ccc(-c2cc[n+](Cc3cc(C[n+]4ccc(-c5cc[n+](CC)cc5)cc4)cc(-[n+]4ccc(-c5cc[n+](-c6cc(C[n+]7ccc(-c8cc[n+](CC)cc8)cc7)cc(C[n+]7ccc(-c8cc[n+](CC)cc8)cc7)c6)cc5)cc4)c3)cc2)cc1.F[P-](F)(F)(F)(F)F.F[P-](F)(F)(F)(F)F.F[P-](F)(F)(F)(F)F.F[P-](F)(F)(F)(F)F.F[P-](F)(F)(F)(F)F.F[P-](F)(F)(F)(F)F.F[P-](F)(F)(F)(F)F.F[P-](F)(F)(F)(F)F.F[P-](F)(F)(F)(F)F.F[P-](F)(F)(F)(F)F` ? 26.8

----------
Some compounds, each annotated with its measured MCC.
- Test method notes: Cytotoxicity against african green monkey Vero cells by MTT assay
- Assay type: cell-based
- Settings: chlorocebus sabaeus

Recorded MCC, per entry:
NC(=O)c1ncn([C@@H]2O[C@H](CO)[C@@H](O)[C@H]2O)n1 [RIBAVIRIN] = > 400 µg/mL
CC[n+]1ccc(-c2cc[n+](Cc3cc(C[n+]4ccc(-c5cc[n+](CC)cc5)cc4)cc(-[n+]4ccc(-c5cc[n+](-c6cc(C[n+]7ccc(-c8cc[n+](CC)cc8)cc7)cc(C[n+]7ccc(-c8cc[n+](CC)cc8)cc7)c6)cc5)cc4)c3)cc2)cc1.F[P-](F)(F)(F)(F)F.F[P-](F)(F)(F)(F)F.F[P-](F)(F)(F)(F)F.F[P-](F)(F)(F)(F)F.F[P-](F)(F)(F)(F)F.F[P-](F)(F)(F)(F)F.F[P-](F)(F)(F)(F)F.F[P-](F)(F)(F)(F)F.F[P-](F)(F)(F)(F)F.F[P-](F)(F)(F)(F)F = > 50 µg/mL

Shifting focus to the compound that follows.
MCC for O=c1[nH]c(=O)n([C@H]2C[C@H](O)[C@@H](CO)O2)cc1/C=C/Br [BRIVUDINE] ? > 400 µg/mL

----------
- Test method notes: Cytotoxicity against human MT4 cells after 5 days by MTT assay
- Format: cell-based
Some compounds, each annotated with its measured CC50 at 120 h.
The answer is to be given in µM; state only the numeric part.

Recorded CC50 at 120 h, per entry:
C=C[n+]1ccc(-c2cc[n+](Cc3ccccc3)cc2)cc1 = 2.7
OCc1cc(CO)cc(-[n+]2ccc(-c3cc[n+](-c4cc(CO)cc(CO)c4)cc3)cc2)c1 = 2.7
NCCC[n+]1ccc(-c2cc[n+](Cc3ccccc3)cc2)cc1 = 0.9

CC50 at 120 h for `CC[n+]1ccc(-c2ccncc2)cc1` ? 281

Follow-up item: `BrCC[n+]1ccc(-c2cc[n+](CCBr)cc2)cc1` 20.6

Follow-up item: `C=C[n+]1ccc(-c2cc[n+](CCc3ccc([N+](=O)[O-])cc3)cc2)cc1` 0.4

Follow-up item: `C=C[n+]1ccc(-c2cc[n+](C)cc2)cc1` 26.1

Follow-up item: `CC[n+]1ccc(-c2cc[n+](Cc3cc(CO)cc(C[n+]4ccc(-c5cc[n+](CC)cc5)cc4)c3)cc2)cc1` 10.6

Follow-up item: `C[n+]1ccc(-c2cc[n+](C)cc2)cc1` 25.2

----------
- Test method notes: Cytotoxicity against human E6SM cells by MTT assay
- Format: cell-based
Readout name: MCC

Recorded MCC, per entry:
O=c1[nH]c(=O)n([C@H]2C[C@H](O)[C@@H](CO)O2)cc1/C=C/Br = > 400 µg/mL
CC[n+]1ccc(-c2cc[n+](Cc3cc(C[n+]4ccc(-c5cc[n+](CC)cc5)cc4)cc(-[n+]4ccc(-c5cc[n+](-c6cc(C[n+]7ccc(-c8cc[n+](CC)cc8)cc7)cc(C[n+]7ccc(-c8cc[n+](CC)cc8)cc7)c6)cc5)cc4)c3)cc2)cc1.F[P-](F)(F)(F)(F)F.F[P-](F)(F)(F)(F)F.F[P-](F)(F)(F)(F)F.F[P-](F)(F)(F)(F)F.F[P-](F)(F)(F)(F)F.F[P-](F)(F)(F)(F)F.F[P-](F)(F)(F)(F)F.F[P-](F)(F)(F)(F)F.F[P-](F)(F)(F)(F)F.F[P-](F)(F)(F)(F)F = > 50 µg/mL

Shifting focus to the compound that follows.
MCC for `NC(=O)c1ncn([C@@H]2O[C@H](CO)[C@@H](O)[C@H]2O)n1` ? > 400 µg/mL

----------
- Test method notes: Selectivity index, ratio of CC50 for human MT4 cells to EC50 for HIV1 3B
- Assay type: toxicity, cell-based
- Settings: read-out: Ratio CC50/EC50
Readout name: selectivity ratio

NCCC[n+]1ccc(-c2cc[n+](CCCN)cc2)cc1 = < 1
C=C[n+]1ccc(-c2cc[n+](C)cc2)cc1 = < 1
CC[n+]1ccc(-c2cc[n+](Cc3cc(CO)cc(C[n+]4ccc(-c5cc[n+](CC)cc5)cc4)c3)cc2)cc1 = < 1
CC[n+]1ccc(-c2cc[n+](Cc3ccc(CBr)cc3)cc2)cc1 = < 1
C=C[n+]1ccc(-c2cc[n+](CCc3ccc([N+](=O)[O-])cc3)cc2)cc1 = < 1
CC[n+]1ccc(-c2cc[n+](Cc3cc(C[n+]4ccc(-c5cc[n+](CC)cc5)cc4)cc(-[n+]4ccc(-c5cc[n+](-c6cc(C[n+]7ccc(-c8cc[n+](CC)cc8)cc7)cc(C[n+]7ccc(-c8cc[n+](CC)cc8)cc7)c6)cc5)cc4)c3)cc2)cc1.F[P-](F)(F)(F)(F)F.F[P-](F)(F)(F)(F)F.F[P-](F)(F)(F)(F)F.F[P-](F)(F)(F)(F)F.F[P-](F)(F)(F)(F)F.F[P-](F)(F)(F)(F)F.F[P-](F)(F)(F)(F)F.F[P-](F)(F)(F)(F)F.F[P-](F)(F)(F)(F)F.F[P-](F)(F)(F)(F)F = 48.5
OCC[n+]1ccc(-c2cc[n+](Cc3cc(C[n+]4ccc(-c5cc[n+](CCO)cc5)cc4)cc(C[n+]4ccc(-c5cc[n+](CCO)cc5)cc4)c3)cc2)cc1 = 3.11
C=C[n+]1ccc(-c2cc[n+](Cc3ccccc3)cc2)cc1 = < 1

Shifting focus to the molecule that follows.
selectivity ratio for `BrCC[n+]1ccc(-c2ccncc2)cc1` ? < 1
